Method notes: Membrane permeability, PermeaPad plate (cell-free transport model)
Assay type: in vitro ADME
Test settings: permeability rate, room temperature, 24 hours
For each of the compounds below, state its Pe.

Bench note: what Pe did COc1ccc2c(c1)CN(Cc1ccc(C(=O)O)cc1)CCS2 [ARM210, reference compound] show?
6.8 10^-6 cm/s

Entry under review: COc1ccc(SCCCN(CCCCC2(O)CC2)CCCCC2(O)CC2)cc1 [Compound 14c] . Reported Pe?
3.6 10^-6 cm/s

Please give the measured Pe for this compound: COc1ccc2c(c1)CN(CCCCC1(O)CC1)CCS2 [Compound 13d]
3.6 10^-6 cm/s

Requested read-out: Pe. Entry: COc1ccc2c(c1)CN(C(=O)C(=O)O)CCS2 [Compound S36, reference compound]
1.0 10^-6 cm/s

What does the record list as Pe for COc1ccc(SCCCNCCCCC2(O)CC2)cc1 [Compound 13c] ?
6.9 10^-6 cm/s

For COc1ccc2c(c1)CN(CCCCNCCCCC1(O)CC1)CCS2 [Compound 13a] , what is its reported Pe?
0.8 10^-6 cm/s

Look up Pe: COc1ccc(OCCCNCCCCC2(O)CC2)cc1 [Compound 13b]
4.0 10^-6 cm/s

Record request: Pe value, item COc1ccc2c(c1)CN(CCCCN(CCCCC1(O)CC1)CCCCC1(O)CC1)CCS2 [Compound 14a]
0.6 10^-6 cm/s

Any idea what its Pe is? The compound is COc1ccc2c(c1)CN(C)CCS2 [Compound S107, reference compound]
1.2 10^-6 cm/s
